Just for reference, patent US4264620A is where these values come from.

# Tested on: contractile response of isolated guinea-pig ileum to angiotensin I
# Assay Overview: Inhibition of contractile response of isolated guinea-pig ileum to angiotensin I (bioassay of angiotensin-converting enzyme inhibitory activity)
# Condition Info: angiotensin I 0.1 μg/ml, Tyrode's solution 30° C., compound added 5 minutes before, read-out: Angiotensin I IC50: concentration of compound producing 50% inhibition of the contractive action of angiotensin I on the guinea-pig ileum
# IC50 per entry
Lab book: enter the figure in nM, no units written.

Solved entries (count: 4):
Molecule: O=C(O)C1CCC(c2ccc(O)cc2)N1C(=O)CCS (stereo not drawn)
Tgt: contractile response of isolated guinea-pig ileum to angiotensin I
Units: nM
IC50: 480

Molecule: O=C(O)C1CCC(c2ccccc2O)N1C(=O)CCS (stereo not drawn) [Compound A]
Tgt: contractile response of isolated guinea-pig ileum to angiotensin I
Units: nM
IC50: 170

Molecule: C[C@H](CS)C(=O)N1C(C(=O)O)CCC1c1ccccc1O (single isomer, unassigned) [Compound C]
Tgt: contractile response of isolated guinea-pig ileum to angiotensin I
Units: nM
IC50: 160

Molecule: C[C@H](CS)C(=O)N1CSC[C@H]1C(=O)O [Compound Z, reference compound]
Tgt: contractile response of isolated guinea-pig ileum to angiotensin I
Units: nM
IC50: 170

Any idea what IC50 was measured for C[C@H](CS)C(=O)N1C(C(=O)O)CCC1c1ccccc1O (single isomer, unassigned) [Compound D] ? 150

Looking for the measured IC50 of O=C(O)C1CCC(c2ccccc2O)N1C(=O)CCS (stereo not drawn) [Compound E] , can you help? 76

* * *

# Test system: contractile response to bradykinin
# Assay Overview: Augmentation of contractile response of isolated guinea-pig ileum to bradykinin
# Condition Info: bradykinin 0.005 μg/ml, compound added 5 minutes before, read-out: Bradykinin AC50: concentration of compound producing 50% augmentation of the contractive action of bradykinin on the guinea-pig ileum
Recorded Endpoint: AC50 (nM)
Kindly provide the numeric value in nM only, without the unit symbol.

Molecule: C[C@H](CS)C(=O)N1C(C(=O)O)CCC1c1ccccc1O (single isomer, unassigned) [Compound D]
Units: nM
AC50: 2.6
//
Molecule: O=C(O)C1CCC(c2ccc(O)cc2)N1C(=O)CCS (stereo not drawn)
Units: nM
AC50: 9.8
//
Molecule: O=C(O)C1CCC(c2ccccc2O)N1C(=O)CCS (stereo not drawn) [Compound A]
Units: nM
AC50: 1.8
//
Molecule: C[C@H](CS)C(=O)N1C(C(=O)O)CCC1c1ccccc1O (single isomer, unassigned) [Compound C]
Units: nM
AC50: 2

Consider the molecule shown here: C[C@H](CS)C(=O)N1CSC[C@H]1C(=O)O [Compound Z, reference compound] What is its recorded AC50? 2.6

// returns reported AC50 for input O=C(O)C1CCC(c2ccccc2O)N1C(=O)CCS (stereo not drawn) [Compound E] 0.95

* * *

# Assay Overview: Acute toxicity test
# Assay type: in vivo
# Condition Info: mouse, in vivo, ip
Recorded Endpoint: LD50

// lookup LD50 for O=C(O)C1CCC(c2ccccc2O)N1C(=O)CCS (stereo not shown) [Compound A] 1000 to 1250 mg/kg

* * *

# Tgt: angiotensin-converting enzyme (Oryctolagus cuniculus)
# Sequence (P12822 34-1310): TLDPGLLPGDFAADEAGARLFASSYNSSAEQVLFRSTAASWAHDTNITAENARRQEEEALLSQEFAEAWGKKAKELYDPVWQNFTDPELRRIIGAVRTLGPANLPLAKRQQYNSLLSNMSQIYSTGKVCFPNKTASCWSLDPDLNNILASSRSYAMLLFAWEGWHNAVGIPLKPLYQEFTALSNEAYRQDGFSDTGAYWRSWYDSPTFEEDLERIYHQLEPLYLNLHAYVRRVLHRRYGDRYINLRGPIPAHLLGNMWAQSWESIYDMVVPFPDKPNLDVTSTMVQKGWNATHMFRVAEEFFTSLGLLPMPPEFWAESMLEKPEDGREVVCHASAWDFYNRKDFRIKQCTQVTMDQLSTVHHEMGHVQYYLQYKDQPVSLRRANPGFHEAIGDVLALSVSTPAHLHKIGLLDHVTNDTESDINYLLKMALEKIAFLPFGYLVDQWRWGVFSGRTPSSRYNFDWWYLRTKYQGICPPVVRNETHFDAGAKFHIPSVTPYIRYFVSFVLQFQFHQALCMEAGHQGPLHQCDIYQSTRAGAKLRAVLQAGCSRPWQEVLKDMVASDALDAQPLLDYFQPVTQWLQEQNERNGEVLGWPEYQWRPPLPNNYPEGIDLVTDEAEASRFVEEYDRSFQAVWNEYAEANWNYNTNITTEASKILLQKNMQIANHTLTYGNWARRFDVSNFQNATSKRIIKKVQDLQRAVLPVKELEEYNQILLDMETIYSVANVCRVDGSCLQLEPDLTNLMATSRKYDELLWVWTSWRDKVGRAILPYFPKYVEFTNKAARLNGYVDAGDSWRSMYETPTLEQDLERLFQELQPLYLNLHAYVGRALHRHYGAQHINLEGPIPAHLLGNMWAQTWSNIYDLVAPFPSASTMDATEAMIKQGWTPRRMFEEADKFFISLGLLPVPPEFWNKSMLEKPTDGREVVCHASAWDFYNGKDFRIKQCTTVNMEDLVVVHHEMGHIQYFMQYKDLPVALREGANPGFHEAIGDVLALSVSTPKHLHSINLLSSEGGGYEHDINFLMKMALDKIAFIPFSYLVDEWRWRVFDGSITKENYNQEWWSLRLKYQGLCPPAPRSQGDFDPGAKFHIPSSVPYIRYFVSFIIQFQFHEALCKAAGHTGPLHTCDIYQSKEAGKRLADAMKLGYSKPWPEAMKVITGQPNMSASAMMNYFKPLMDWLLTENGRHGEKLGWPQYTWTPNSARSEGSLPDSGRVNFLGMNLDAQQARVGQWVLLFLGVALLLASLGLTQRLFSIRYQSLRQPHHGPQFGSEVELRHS
Recorded Endpoint: pIC50
Scale: pIC50 equals -log10([C]), with [C] in mol/L.

Example results:
Compound: C[C@H](CS)C(=O)N1C(C(=O)O)CCC1c1ccccc1O (single isomer, unassigned)
pIC50: 5.96
--
Compound: O=C(O)C1CCC(c2ccccc2O)N1C(=O)CCS (stereo not drawn) [Compound E]
pIC50: 7.19

API: the following record is the query input.
# query: pIC50 | item O=C(O)C1CCC(c2ccccc2O)N1C(=O)CCS (stereo not drawn) [Compound A] | system: angiotensin-converting enzyme (Oryctolagus cuniculus) 6.25
